subject of test: Carbonic anhydrase, Pseudomonas aeruginosa (strain ATCC 15692 / DSM 22644 / CIP 104116 / JCM 14847 / LMG 12228 / 1C / PRS 101 / PAO1)
Sequence (whole entry): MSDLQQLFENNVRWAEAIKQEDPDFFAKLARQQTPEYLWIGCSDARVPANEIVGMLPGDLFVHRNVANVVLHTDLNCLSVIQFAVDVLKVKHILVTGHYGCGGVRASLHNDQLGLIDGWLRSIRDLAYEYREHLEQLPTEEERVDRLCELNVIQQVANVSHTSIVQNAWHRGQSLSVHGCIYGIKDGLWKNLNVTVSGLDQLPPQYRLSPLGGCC
pKi: −log10 of the molar value.
outcome measure: pKi

Please report the recorded pKi for C=CC(=O)Nc1ccc(Cn2nc(-c3ccc4[nH]c(C)nc4c3)c3c(N)ncnc32)cc1 .
< 1.00
